Origin of the recorded values: patent US20030190365A1

Assay details: Equilibrium solubility of azithromycin forms in granulating liquids (HPLC-UV)
Assay conditions: 48 hours, water
Overview of recorded solubility for various compounds

Compound	solubility [mgA/mL]
CCC1OC(=O)C(C)C(O[C@H]2C[C@@](C)(OC)[C@@H](O)C(C)O2)C(C)[C@@H](OC2OC(C)CC(N(C)C)[C@H]2O)[C@@](C)(O)C[C@@H](C)CN(C)[C@H](C)[C@@H](O)[C@]1(C)O (stereo partly drawn) [form J]	0.22
CCC1OC(=O)C(C)C(O[C@H]2C[C@@](C)(OC)[C@@H](O)C(C)O2)C(C)[C@@H](OC2OC(C)CC(N(C)C)[C@H]2O)[C@@](C)(O)C[C@@H](C)CN(C)[C@H](C)[C@@H](O)[C@]1(C)O (stereo partly drawn) [form M]	0.21
CC[C@H]1OC(=O)[C@H](C)[C@@H](O[C@H]2C[C@@](C)(OC)[C@@H](O)[C@H](C)O2)[C@H](C)[C@@H](O[C@@H]2O[C@H](C)C[C@H](N(C)C)[C@H]2O)[C@](C)(O)C[C@@H](C)CN(C)[C@H](C)[C@@H](O)[C@]1(C)O [form N, azithromycin]	0.24

---

Overview of recorded As Is Density for various compounds
Assay details: As-is and tapped density of bulk drug and dried granulations (Van Kel tap density tester)
Assay type: physicochemical
Assay conditions: Example 3

Compound	Display unit	As Is Density
CCC1OC(=O)C(C)C(O[C@H]2C[C@@](C)(OC)[C@@H](O)C(C)O2)C(C)[C@@H](OC2OC(C)CC(N(C)C)[C@H]2O)[C@@](C)(O)C[C@@H](C)CN(C)[C@H](C)[C@@H](O)[C@]1(C)O (stereo partly shown) [form M]	g/cc	0.391
CCC1OC(=O)C(C)C(O[C@H]2C[C@@](C)(OC)[C@@H](O)C(C)O2)C(C)[C@@H](OC2OC(C)CC(N(C)C)[C@H]2O)[C@@](C)(O)C[C@@H](C)CN(C)[C@H](C)[C@@H](O)[C@]1(C)O (stereo partly shown) [form J]	g/cc	0.377
CCC1OC(=O)C(C)C(O[C@H]2C[C@@](C)(OC)[C@@H](O)C(C)O2)C(C)[C@@H](OC2OC(C)CC(N(C)C)[C@H]2O)[C@@](C)(O)C[C@@H](C)CN(C)[C@H](C)[C@@H](O)[C@]1(C)O (stereo partly shown) [form F]	g/cc	0.290
CC[C@H]1OC(=O)[C@H](C)[C@@H](O[C@H]2C[C@@](C)(OC)[C@@H](O)[C@H](C)O2)[C@H](C)[C@@H](O[C@@H]2O[C@H](C)C[C@H](N(C)C)[C@H]2O)[C@](C)(O)C[C@@H](C)CN(C)[C@H](C)[C@@H](O)[C@]1(C)O [form N, azithromycin]	g/cc	0.450

---

Overview of recorded solubility for various molecules
Assay details: Equilibrium solubility of azithromycin forms in granulating liquids (HPLC-UV)
Assay conditions: 24 hours, IPA 67% in water v/v

Molecule	Display unit	solubility
CCC1OC(=O)C(C)C(O[C@H]2C[C@@](C)(OC)[C@@H](O)C(C)O2)C(C)[C@@H](OC2OC(C)CC(N(C)C)[C@H]2O)[C@@](C)(O)C[C@@H](C)CN(C)[C@H](C)[C@@H](O)[C@]1(C)O (some centres unmarked) [form J]	mgA/mL	113.05
CC[C@H]1OC(=O)[C@H](C)[C@@H](O[C@H]2C[C@@](C)(OC)[C@@H](O)[C@H](C)O2)[C@H](C)[C@@H](O[C@@H]2O[C@H](C)C[C@H](N(C)C)[C@H]2O)[C@](C)(O)C[C@@H](C)CN(C)[C@H](C)[C@@H](O)[C@]1(C)O [form A, reference compound]	mgA/mL	68.71
CC[C@H]1OC(=O)[C@H](C)[C@@H](O[C@H]2C[C@@](C)(OC)[C@@H](O)[C@H](C)O2)[C@H](C)[C@@H](O[C@@H]2O[C@H](C)C[C@H](N(C)C)[C@H]2O)[C@](C)(O)C[C@@H](C)CN(C)[C@H](C)[C@@H](O)[C@]1(C)O [form N, azithromycin]	mgA/mL	113.08
CCC1OC(=O)C(C)C(O[C@H]2C[C@@](C)(OC)[C@@H](O)C(C)O2)C(C)[C@@H](OC2OC(C)CC(N(C)C)[C@H]2O)[C@@](C)(O)C[C@@H](C)CN(C)[C@H](C)[C@@H](O)[C@]1(C)O (some centres unmarked) [form M]	mgA/mL	110.67
CCC1OC(=O)C(C)C(O[C@H]2C[C@@](C)(OC)[C@@H](O)C(C)O2)C(C)[C@@H](OC2OC(C)CC(N(C)C)[C@H]2O)[C@@](C)(O)C[C@@H](C)CN(C)[C@H](C)[C@@H](O)[C@]1(C)O (some centres unmarked) [form F]	mgA/mL	94.09

---

Overview of recorded solubility for various molecules
Assay details: Equilibrium solubility of azithromycin forms in granulating liquids (HPLC-UV)
Assay conditions: 48 hours, IPA 33% in water v/v

Molecule	solubility (mgA/mL)
CC[C@H]1OC(=O)[C@H](C)[C@@H](O[C@H]2C[C@@](C)(OC)[C@@H](O)[C@H](C)O2)[C@H](C)[C@@H](O[C@@H]2O[C@H](C)C[C@H](N(C)C)[C@H]2O)[C@](C)(O)C[C@@H](C)CN(C)[C@H](C)[C@@H](O)[C@]1(C)O [form A, reference compound]	5.25
CC[C@H]1OC(=O)[C@H](C)[C@@H](O[C@H]2C[C@@](C)(OC)[C@@H](O)[C@H](C)O2)[C@H](C)[C@@H](O[C@@H]2O[C@H](C)C[C@H](N(C)C)[C@H]2O)[C@](C)(O)C[C@@H](C)CN(C)[C@H](C)[C@@H](O)[C@]1(C)O [form N, azithromycin]	7.36
CCC1OC(=O)C(C)C(O[C@H]2C[C@@](C)(OC)[C@@H](O)C(C)O2)C(C)[C@@H](OC2OC(C)CC(N(C)C)[C@H]2O)[C@@](C)(O)C[C@@H](C)CN(C)[C@H](C)[C@@H](O)[C@]1(C)O (some centres unmarked) [form M]	8.92
CCC1OC(=O)C(C)C(O[C@H]2C[C@@](C)(OC)[C@@H](O)C(C)O2)C(C)[C@@H](OC2OC(C)CC(N(C)C)[C@H]2O)[C@@](C)(O)C[C@@H](C)CN(C)[C@H](C)[C@@H](O)[C@]1(C)O (some centres unmarked) [form J]	9.40
CCC1OC(=O)C(C)C(O[C@H]2C[C@@](C)(OC)[C@@H](O)C(C)O2)C(C)[C@@H](OC2OC(C)CC(N(C)C)[C@H]2O)[C@@](C)(O)C[C@@H](C)CN(C)[C@H](C)[C@@H](O)[C@]1(C)O (some centres unmarked) [form F]	9.41

---

Assay details: Equilibrium solubility of azithromycin forms in granulating liquids (HPLC-UV)
Assay conditions: 24 hours, IPA 100% neat
Property label: solubility (mgA/mL)

Compound	Property label	Numeric readout
CCC1OC(=O)C(C)C(O[C@H]2C[C@@](C)(OC)[C@@H](O)C(C)O2)C(C)[C@@H](OC2OC(C)CC(N(C)C)[C@H]2O)[C@@](C)(O)C[C@@H](C)CN(C)[C@H](C)[C@@H](O)[C@]1(C)O (some centres unmarked) [form F]	solubility	367.02
CC[C@H]1OC(=O)[C@H](C)[C@@H](O[C@H]2C[C@@](C)(OC)[C@@H](O)[C@H](C)O2)[C@H](C)[C@@H](O[C@@H]2O[C@H](C)C[C@H](N(C)C)[C@H]2O)[C@](C)(O)C[C@@H](C)CN(C)[C@H](C)[C@@H](O)[C@]1(C)O [form N, azithromycin]	solubility	334.22
CCC1OC(=O)C(C)C(O[C@H]2C[C@@](C)(OC)[C@@H](O)C(C)O2)C(C)[C@@H](OC2OC(C)CC(N(C)C)[C@H]2O)[C@@](C)(O)C[C@@H](C)CN(C)[C@H](C)[C@@H](O)[C@]1(C)O (some centres unmarked) [form M]	solubility	333.39
CCC1OC(=O)C(C)C(O[C@H]2C[C@@](C)(OC)[C@@H](O)C(C)O2)C(C)[C@@H](OC2OC(C)CC(N(C)C)[C@H]2O)[C@@](C)(O)C[C@@H](C)CN(C)[C@H](C)[C@@H](O)[C@]1(C)O (some centres unmarked) [form J]	solubility	315.94
CC[C@H]1OC(=O)[C@H](C)[C@@H](O[C@H]2C[C@@](C)(OC)[C@@H](O)[C@H](C)O2)[C@H](C)[C@@H](O[C@@H]2O[C@H](C)C[C@H](N(C)C)[C@H]2O)[C@](C)(O)C[C@@H](C)CN(C)[C@H](C)[C@@H](O)[C@]1(C)O [form A, reference compound]	solubility	291.91

---

Overview of recorded solubility for various compounds
Assay details: Equilibrium solubility of azithromycin forms in granulating liquids (HPLC-UV)
Assay conditions: 48 hours, IPA 100% neat

Compound	solubility (mgA/mL)
CCC1OC(=O)C(C)C(O[C@H]2C[C@@](C)(OC)[C@@H](O)C(C)O2)C(C)[C@@H](OC2OC(C)CC(N(C)C)[C@H]2O)[C@@](C)(O)C[C@@H](C)CN(C)[C@H](C)[C@@H](O)[C@]1(C)O (some centres unmarked) [form J]	295.88
CC[C@H]1OC(=O)[C@H](C)[C@@H](O[C@H]2C[C@@](C)(OC)[C@@H](O)[C@H](C)O2)[C@H](C)[C@@H](O[C@@H]2O[C@H](C)C[C@H](N(C)C)[C@H]2O)[C@](C)(O)C[C@@H](C)CN(C)[C@H](C)[C@@H](O)[C@]1(C)O [form N, azithromycin]	322.91
CCC1OC(=O)C(C)C(O[C@H]2C[C@@](C)(OC)[C@@H](O)C(C)O2)C(C)[C@@H](OC2OC(C)CC(N(C)C)[C@H]2O)[C@@](C)(O)C[C@@H](C)CN(C)[C@H](C)[C@@H](O)[C@]1(C)O (some centres unmarked) [form M]	353.19
CC[C@H]1OC(=O)[C@H](C)[C@@H](O[C@H]2C[C@@](C)(OC)[C@@H](O)[C@H](C)O2)[C@H](C)[C@@H](O[C@@H]2O[C@H](C)C[C@H](N(C)C)[C@H]2O)[C@](C)(O)C[C@@H](C)CN(C)[C@H](C)[C@@H](O)[C@]1(C)O [form A, reference compound]	280.91
CCC1OC(=O)C(C)C(O[C@H]2C[C@@](C)(OC)[C@@H](O)C(C)O2)C(C)[C@@H](OC2OC(C)CC(N(C)C)[C@H]2O)[C@@](C)(O)C[C@@H](C)CN(C)[C@H](C)[C@@H](O)[C@]1(C)O (some centres unmarked) [form F]	362.64
